Tested System: sheep Cyclooxygenase-1 (Cox1), PTGS1 (gene 443551) (UniProt P05979)
Sequence (P05979 whole entry, looked up): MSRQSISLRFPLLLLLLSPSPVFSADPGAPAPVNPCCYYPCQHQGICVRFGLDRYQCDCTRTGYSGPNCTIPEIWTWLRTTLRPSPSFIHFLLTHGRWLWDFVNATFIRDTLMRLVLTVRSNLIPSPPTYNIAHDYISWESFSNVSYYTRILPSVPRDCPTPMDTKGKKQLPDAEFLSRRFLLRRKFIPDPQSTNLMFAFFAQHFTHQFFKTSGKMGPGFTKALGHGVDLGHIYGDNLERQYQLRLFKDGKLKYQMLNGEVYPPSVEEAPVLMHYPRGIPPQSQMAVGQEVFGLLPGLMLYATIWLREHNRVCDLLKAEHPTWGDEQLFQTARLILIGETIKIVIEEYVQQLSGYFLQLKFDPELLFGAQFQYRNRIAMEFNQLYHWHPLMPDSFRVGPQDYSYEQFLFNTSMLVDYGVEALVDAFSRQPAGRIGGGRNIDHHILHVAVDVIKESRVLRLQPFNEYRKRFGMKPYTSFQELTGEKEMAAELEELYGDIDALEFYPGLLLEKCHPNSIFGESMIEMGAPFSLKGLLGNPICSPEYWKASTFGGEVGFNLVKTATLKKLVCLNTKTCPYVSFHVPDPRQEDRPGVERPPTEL
Procedure Summary: NVS_ENZ_oCOX1: NovaScreen (NVS) Enzymatic Assay for sheep Cyclooxygenase-1 (Cox1) (AID 2283239);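 note: actives reduce cyclooxygenase activity so potencies are for inhibitors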
Inconclusive results are not listed. Activity calls are given as the source filed them. Rule for the calls: active = hit-call score of the fitted dose curve at least 0.9, where 1 is the maximum; inconclusive = response in the unintended direction; inactive = score below 0.9.
Outcome Measure: AC50

[[record]]
compound = "Nc1nc(=S)c2[nH]cnc2[nH]1"
outcome_measure = "AC50"
result = "2.25 µM (active)"

[[record]]
compound = "O=[Si]=O"
outcome_measure = "AC50"
result = "inactive"

[[record]]
compound = "Oc1ccc(O)cc1"
outcome_measure = "AC50"
result = "inactive"

[[record]]
compound = "COC(=O)[C@H]1[C@H]2C[C@@H]3c4[nH]c5cc(OC)ccc5c4CCN3C[C@H]2C[C@@H](OC(=O)c2cc(OC)c(OC)c(OC)c2)[C@@H]1OC"
outcome_measure = "AC50"
result = "19.5 µM (active)"

[[record]]
compound = "C#CC(O)C(CC)CCCC (stereo not given)"
outcome_measure = "AC50"
result = "inactive"

[[record]]
compound = "CC(=O)S[C@H](C(=O)N[C@H]1Cc2ccccc2[C@H]2CCC[C@@H](C(=O)O)N2C1=O)C(C)C"
outcome_measure = "AC50"
result = "inactive"

[[record]]
compound = "NC(=Nc1ccccc1)Nc1ccccc1"
outcome_measure = "AC50"
result = "inactive"

[[record]]
compound = "CSc1ccc(Oc2ccc(S(N)(=O)=O)cc2CN(C)C)cc1C"
outcome_measure = "AC50"
result = "inactive"

[[record]]
compound = "COc1ccc(OC(F)(F)F)cc1CN[C@H]1CCCN[C@H]1c1ccccc1"
outcome_measure = "AC50"
result = "11.6 µM (active)"

[[record]]
compound = "S=c1[nH]c2ccccc2s1"
outcome_measure = "AC50"
result = "8.91 µM (active)"


// data source = PubChem BioAssay (EPA / NIEHS)
